The entries below are paired with their reported pIC50.
# SYSTEM_TESTED: sigma opiate binding site
# METHOD_DESCRIPTION: Inhibition of [3H]DTG (ditoluoylguanidine) binding (Weber et al.)
# pIC50: negative log10 of molar concentration; output just the value

{"COMPOUND": "C1=C(c2ccccc2)CCC(CCN2CCN(c3ccccn3)CC2)C1 (racemic) [Example 2d]", "pIC50": 7.64}
{"COMPOUND": "C1=C(c2nccs2)CCC(CCN2CCN(c3ccccn3)CC2)C1 (racemic) [Example 2f]", "pIC50": 7.01}
{"COMPOUND": "Fc1ccc(C2=CCC(CCN3CCN(c4ccccn4)CC3)CC2)cc1 (racemic) [Example 2e]", "pIC50": 7.70}
{"COMPOUND": "C1=C(c2cccs2)CCC(CCN2CCN(c3ccccn3)CC2)C1 (racemic) [Example 2c]", "pIC50": 7.41}
{"COMPOUND": "C1=C(c2ccccc2)CCN(CCC2CC=C(c3cccs3)CC2)C1 (racemic) [Example 2g]", "pIC50": 8.70}

Then there is this compound:
Q: Recorded pIC50 of C1=C(c2ccccn2)CCC(CCN2CCN(c3ccccn3)CC2)C1 (racemic) [Example 1b] , please.
Ans: 7.41

====

# Test system: Brain Striatal Dopamine Synthesis
# METHOD_DESCRIPTION: Inhibition of brain striatal dopamine synthesis in rats (Walters and Roth)
# Type: in vivo
# CONDITIONS_USED: Rattus norvegicus, IP, read-out: Effects on Brain Striatal Dopamine Synthesis in Rats, inhibition
READOUT_NAME: inhibition at 10 mg/kg (%)
// note: answer is a bare numeric in %

{"COMPOUND": "C1=C(c2nccs2)CCC(CCN2CCN(c3ccccn3)CC2)C1 (racemic)", "VALUE_OBSERVED": 77}
{"COMPOUND": "Fc1ccc(C2=CCC(CCN3CCN(c4ccccn4)CC3)CC2)cc1 (racemic)", "VALUE_OBSERVED": 23}
{"COMPOUND": "C1=C(c2ccccn2)CCC(N2CCN(c3ccccn3)CC2)C1 (racemic)", "VALUE_OBSERVED": 75}

Q: Recorded inhibition at 10 mg/kg of C1=C(c2ccccc2)CCC(CCN2CCN(c3ccccn3)CC2)C1 (racemic) , please.
Ans: 48

Q: Recorded inhibition at 10 mg/kg of C1=C(c2cccnc2)CCC(N2CCN(c3ccccn3)CC2)C1 (racemic) , please.
Ans: 100

Q: Recorded inhibition at 10 mg/kg of C1=C(c2cccs2)CCC(CCN2CCN(c3ccccn3)CC2)C1 (racemic) , please.
Ans: 46

====

# SYSTEM_TESTED: [^3 H]-Spiroperidol binding (receptor)
# METHOD_DESCRIPTION: Inhibition of [3H]-spiroperidol binding (receptor assay, Grigoriadis and Seeman)
pIC50: −log10 of the molar value.
Decision: pIC50 >= 6 yields Satisfied, all other cases yield Not satisfied.

Worked cases, answers included:
{"MOLECULE": "C1=C(c2ccccn2)CCC(CCN2CCN(c3ccccn3)CC2)C1 (racemic) [Example 1b]", "ASSIGNED_CLASS": "Satisfied"}
{"MOLECULE": "C1=C(c2cccs2)CCC(N2CCN(c3ccccn3)CC2)C1 (racemic) [Example 2]", "ASSIGNED_CLASS": "Satisfied"}

Q: Determine whether this molecule has pIC50 no lower than 6: C1=C(c2cccs2)CCC(CN2CCN(c3ccccn3)CC2)C1 (racemic) [Example 2b]
Ans: Not satisfied

Q: Determine whether this molecule has pIC50 no lower than 6: C1=C(c2ccccc2)CCC(N2CCN(c3ccccn3)CC2)C1 (racemic) [Example 2a]
Ans: Satisfied

Q: Determine whether this molecule has pIC50 no lower than 6: C1=C(c2ccccc2)CCN(CCC2CC=C(c3cccs3)CC2)C1 (racemic) [Example 2g]
Ans: Satisfied

Q: Determine whether this molecule has pIC50 no lower than 6: C1=C(c2ccccc2)CCN(C2CC=C(c3ccccn3)CC2)C1 (racemic) [Example 3]
Ans: Satisfied

====

# System: mice
# METHOD_DESCRIPTION: Inhibition of locomotor activity in mice (McLean et al.)
# Assay type: in vivo
# CONDITIONS_USED: Mus musculus; mice, IP; read-out: Inhibition of Locomotor Activity in Mice ED50
Rule for this label: t means ED50 is less than 1 mg/kg; f means ED50 is at least 1 mg/kg.

{"MOLECULE": "C1=C(c2cccs2)CCC(N2CCN(c3ccccn3)CC2)C1 (racemic)", "ASSIGNED_CLASS": "f"}
{"MOLECULE": "C1=C(c2nccs2)CCC(CCN2CCN(c3ccccn3)CC2)C1 (racemic)", "ASSIGNED_CLASS": "t"}

Q: I'd appreciate it if you could check whether C1=C(c2ccccc2)CCC(CCN2CCN(c3ccccn3)CC2)C1 (racemic) has ED50 smaller than 1 mg/kg.
Ans: f

Q: I'd appreciate it if you could check whether C1=C(c2cccnc2)CCC(N2CCN(c3ccccn3)CC2)C1 (racemic) has ED50 smaller than 1 mg/kg.
Ans: t

====

The entries below are paired with their reported pIC50.
# SYSTEM_TESTED: [^3 H]-Spiroperidol binding (receptor)
# METHOD_DESCRIPTION: Inhibition of [3H]-spiroperidol binding (receptor assay, Grigoriadis and Seeman)
# pIC50: negative log10 of molar concentration; output just the value

Below are worked cases with known answers.
{"MOLECULE": "Fc1ccc(C2=CCC(CCN3CCN(c4ccccn4)CC3)CC2)cc1 (racemic)", "VALUE_OBSERVED": 6.44}
{"MOLECULE": "C1=C(c2nccs2)CCC(CCN2CCN(c3ccccn3)CC2)C1 (racemic)", "VALUE_OBSERVED": 6.57}

Q: Recorded pIC50 of C1=C(c2cccnc2)CCC(N2CCN(c3ccccn3)CC2)C1 (racemic) , please.
Ans: 6.73

Q: Recorded pIC50 of C1=C(c2ccccc2)CCC(CCN2CCN(c3ccccn3)CC2)C1 (racemic) , please.
Ans: 6.39
